- MEASURED_TARGET: Protein Tat (Human immunodeficiency virus type 1 group M subtype B (isolate HXB2)) (UniProt P04608)
- Sequence (P04608 whole entry, looked up): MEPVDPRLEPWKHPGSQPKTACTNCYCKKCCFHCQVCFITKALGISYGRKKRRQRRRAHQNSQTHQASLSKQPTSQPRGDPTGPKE
- ASSAY_SUMMARY: inhibitors of Tat binding to TAR RNA, dose response, counter-screen for Vif-APOBEC3G degradation inhibitor project, biochemical, fluorescence polarization, FAM-labeled TAR RNA (AID 1117361)
Recorded measurements of IC50, one per entry

Take a look at these entries with their results.
COMPOUND | RESULT
Cc1cc(NC(=O)Cc2cccs2)no1 | 55.9 µM
O=C(O)c1c2c(nc3ccc(Cl)cc13)CCC2 | 13.2 µM

Input: Entry CCn1c(SC(C)C(=O)O)nc2sc3c(c2c1=O)CCC3 (stereo not given) has what IC50?
Output: 70.4 µM

Input: Same question for CCn1c(C)nc2cc(C(=O)N/N=C/c3ccc(O)c(O)c3O)ccc21 please.
Output: 15.3 µM

Input: Same question for Cc1ccc(SCCN2C(=O)NC(C)(C)C2=O)cc1 please.
Output: 24.8 µM

Input: Same question for O=C(N/N=C/c1ccc(O)c(O)c1O)/C(=C/c1ccc([N+](=O)[O-])cc1)NC(=O)c1ccccc1 please.
Output: 7.17 µM

The origin of these recorded values is PubChem BioAssay AID1117361.
